biological target: MAPKAP-K2 (Homo sapiens); experiment: MAPKAP-Kinase 2 Assay (33P-ATP peptide phosphorylation, filter plate); format: biochemical; set-up: key: +: active; ++: more active; +++: very active; details: assays conducted at typically 1-100 μM
Sequence (P49137 whole entry): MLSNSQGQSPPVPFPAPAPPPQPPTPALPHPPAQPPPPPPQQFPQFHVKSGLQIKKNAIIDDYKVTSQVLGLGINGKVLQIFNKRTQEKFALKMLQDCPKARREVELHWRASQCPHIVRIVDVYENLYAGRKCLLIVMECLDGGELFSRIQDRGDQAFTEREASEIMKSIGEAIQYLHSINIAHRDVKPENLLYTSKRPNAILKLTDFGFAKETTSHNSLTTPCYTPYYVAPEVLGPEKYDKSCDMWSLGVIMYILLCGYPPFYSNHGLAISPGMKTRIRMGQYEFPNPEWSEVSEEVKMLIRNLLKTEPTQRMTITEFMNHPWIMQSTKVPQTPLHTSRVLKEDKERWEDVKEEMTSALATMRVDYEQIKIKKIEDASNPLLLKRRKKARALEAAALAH
PROPERTY_MEASURED: MAPKAP-K2 activity

>>> result("CSc1ccc(Nc2cc(N[C@H]3CC[C@H](N)CC3)nc3ccnn23)cc1")
"+++"
>>> result("Cc1cccc(Nc2cc(N[C@H]3CC[C@H](N)CC3)nc3ccnn23)c1C")
"+++"
>>> result("NC1CCC(Nc2cc(Nc3ccccc3Br)n3nccc3n2)CC1 (centres unmarked)")
"+++"
>>> result("Fc1ccc(Nc2cc(NC3CCNCC3)nc3ccnn23)cc1Cl")
"++"
>>> result("CCOc1cccc(Nc2cc(NC3CCCNC3)nc3ccnn23)c1 (centres unmarked)")
"+++"

###

target: MAPKAP-K2 (Homo sapiens); test: MAPKAP-Kinase 2 Assay (33P-ATP peptide phosphorylation, filter plate); type: biochemical; parameters: key: +: active; ++: more active; +++: very active; settings: assays conducted at typically 1-100 μM
PROPERTY_MEASURED: MAPKAP-K2 activity

>>> result("CCCc1ccc(Nc2cc(NC3CCC(N)CC3)nc3ccnn23)cc1 (centres unmarked)")
"+++"
>>> result("CN(C)c1cccc(Nc2cc(N[C@H]3CC[C@H](N)CC3)nc3ccnn23)c1")
"+++"
>>> result("CC(C)NC1CCC(Nc2cc(Nc3ccc(F)c(Cl)c3)n3nccc3n2)CC1 (centres unmarked)")
"++"
>>> result("Cc1ccc(C)c(Nc2cc(N[C@H]3CC[C@H](N)CC3)nc3ccnn23)c1")
"+++"
>>> result("CC(=O)NC1CCC(Nc2cc(Nc3ccc(F)c(Cl)c3)n3nccc3n2)CC1 (centres unmarked)")
"+"
>>> result("Fc1ccc(Nc2cc(NC3CCC(NCCCCc4ccccc4)CC3)nc3ccnn23)cc1Cl (centres unmarked)")
"++"
>>> result("N[C@H]1CC[C@H](Nc2cc(NCc3cccc(Cl)c3)n3nccc3n2)CC1")
"++"
>>> result("CCN[C@H]1CC[C@H](Nc2cc(Nc3ccc(F)c(Cl)c3)n3nccc3n2)CC1")
"+++"

###

target: MAPKAP-K2 (Homo sapiens); assay: MAPKAP-Kinase 2 Assay (33P-ATP peptide phosphorylation, filter plate); type: biochemical; set-up: key: +: active; ++: more active; +++: very active; details: assays conducted at typically 1-100 μM
PROPERTY_MEASURED: MAPKAP-K2 activity

>>> result("N[C@H]1CC[C@H](Nc2cc(NCc3ccc(F)c(Cl)c3)n3nccc3n2)CC1 [Compound 1]")
"++"
>>> result("CN1CCC(Nc2cc(Nc3ccc(F)c(Cl)c3)n3nccc3n2)CC1 [Compound 56]")
"++"
>>> result("N[C@H]1CC[C@H](Nc2cc(Nc3cccc(Cl)c3Cl)n3nccc3n2)CC1 [Compound 67]")
"+++"
>>> result("NC1CCC(Nc2cc(Nc3ccc(OCc4ccccc4)cc3)n3nccc3n2)CC1 (centres unmarked) [Compound 52]")
"+++"
>>> result("N[C@H]1CC[C@H](Nc2cc(NCc3ccc(Cl)cc3)n3nccc3n2)CC1 [Compound 14]")
"++"
>>> result("N#C/N=C(\\N)NC1CCC(Nc2cc(Nc3ccc(F)c(Cl)c3)n3nccc3n2)CC1 (centres unmarked) [Compound 79]")
"++"
>>> result("Fc1ccc(Nc2cc(NC3CCC(NCCc4ccccc4)CC3)nc3ccnn23)cc1Cl (centres unmarked) [Compound 121]")
"++"
>>> result("NC1CCC(Nc2cc(Nc3ccc(C(F)(F)F)cc3Cl)n3nccc3n2)CC1 (centres unmarked) [Compound 91]")
"+++"
